Entries and their protein stability index values follow.
B1: ZNF449 (parent)
chain: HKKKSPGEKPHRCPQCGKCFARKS

- Variants of: B1
- protocolNotes: protein stability index of a GFP-peptide fusion (GPS, HEK-293T) (PSI 1-6); higher = more stable;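 also: lentivirally expressed fusions sorted by FACS into six bins by GFP to DsRed ratio, PSI derived from sequencing read proportions per bin multiplied by bin number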
- appliedConditions: c terminus: a fixed tail appended
Please reply with the value in numeric form only.

>  <mutationDescriptor>
K4W

>  <obsValue>
2.98

$$$$
>  <mutationDescriptor>
C16E

>  <obsValue>
4.71

$$$$
>  <mutationDescriptor>
K2P

>  <obsValue>
3.46

$$$$
>  <mutationDescriptor>
R12P

>  <obsValue>
2.74

$$$$
>  <mutationDescriptor>
Q15K

>  <obsValue>
3.25

$$$$

Given the entry `C19Y` , report its measured protein stability index.
3.99

Quick one: protein stability index of `A21C` ?
2.66

Look at this variant and give its reported protein stability index. `K18N`
3.87

Which protein stability index is reported for this variant? `P14E`
3.79

May I ask what protein stability index has been recorded for `P14T` ?
3.54

# protein stability index lookup, item `C13I`
4.05
